Assay: refractive index (Na D-line) (dimensionless)
Conditions: 298.15 K; 100 kPa; Liquid; Standard Abbe refractometry
Provide the recorded refractive index for the entries that follow.
Numbers only.

Please supply refractive index for each of the following items, keeping them in order.
1. CC(=O)[O-].CCn1cc[n+](C)c1 [1-ethyl-3-methylimidazolium acetate]
2. c1ccsc1
3. CCn1cc[n+](C)c1.CS(=O)(=O)[O-] [1-ethyl-3-methylimidazolium methanesulfonate]
4. CCOS(=O)(=O)[O-].CCn1cc[n+](C)c1 [1-ethyl-3-methylimidazolium ethyl sulfate]
5. c1ccncc1

Result:
1.5012
1.5271
1.4962
1.4771
1.5072

* * *

Conditions: 298.15 K; 100 kPa; Liquid; Vibrating tube method
EXPERIMENTAL_READOUT: mass density (kg/m3)
Give bare numbers, in kg/m3.

Ask: Tell me the measured mass density of c1ccsc1 [thiophene] , please.
Result: 1058.44

Ask: Quick check: mass density of CCOS(=O)(=O)[O-].CCn1cc[n+](C)c1 [1-ethyl-3-methylimidazolium ethyl sulfate] ?
Result: 1234.53

Ask: Looking for the measured mass density of CC(=O)[O-].CCn1cc[n+](C)c1 [1-ethyl-3-methylimidazolium acetate] , can you help?
Result: 1097.37

Ask: Name the recorded mass density for c1ccncc1 [pyridine] .
Result: 978.25

Moving on to another compound below.
Ask: Which measured mass density value corresponds to CCn1cc[n+](C)c1.CS(=O)(=O)[O-] [1-ethyl-3-methylimidazolium methanesulfonate] ?
Result: 1242.52

* * *

Settings: 298.15 K, Wilhelmy plate method
Exercise: state measured surface tension liquid-gas for each of the molecules provided.
Give bare numbers, in mN/m.

Go through the items and report each one's surface tension liquid-gas.
1. c1ccsc1
2. CCn1cc[n+](C)c1.CS(=O)(=O)[O-] [1-ethyl-3-methylimidazolium methanesulfonate]
3. c1ccncc1
4. CC(=O)[O-].CCn1cc[n+](C)c1 [1-ethyl-3-methylimidazolium acetate]
5. CCOS(=O)(=O)[O-].CCn1cc[n+](C)c1 [1-ethyl-3-methylimidazolium ethyl sulfate]

Result:
1. 31.7
2. 51.2
3. 37.5
4. 43.5
5. 48.4
